Entries and their IC50 values follow.
target.system: CCK-2R (Rattus norvegicus)
Construct: The CCK-2R expressing rat pancreatic tumor cells AR4-2J; host or cells: AR4-2J rat pancreatic tumor cells
Sequence (P30553 whole entry): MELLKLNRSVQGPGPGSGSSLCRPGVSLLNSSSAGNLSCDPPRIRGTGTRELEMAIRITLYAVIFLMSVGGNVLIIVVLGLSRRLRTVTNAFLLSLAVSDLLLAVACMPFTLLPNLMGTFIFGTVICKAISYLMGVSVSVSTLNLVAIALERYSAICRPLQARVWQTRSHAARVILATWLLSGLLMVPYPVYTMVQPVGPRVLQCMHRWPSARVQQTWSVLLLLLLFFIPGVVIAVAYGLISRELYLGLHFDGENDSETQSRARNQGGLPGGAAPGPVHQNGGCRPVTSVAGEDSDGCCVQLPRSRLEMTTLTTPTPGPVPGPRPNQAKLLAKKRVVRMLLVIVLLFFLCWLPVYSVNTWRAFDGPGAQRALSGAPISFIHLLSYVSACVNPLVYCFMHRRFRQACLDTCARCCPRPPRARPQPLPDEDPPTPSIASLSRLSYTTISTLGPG
experimental.details: Determination of IC50: CCK-2R affinity on AR4-2J cells, competition with [^177Lu]Lu-DOTA-PP-F11N
Type: binding
settings: AR4-2J cells; ^natLu-labeled; read-out: IC50 [nM] (n = 3), ^natLu-labeled
Starred links: 1 amine or outer side, 2 acyl side, 3 side chain; linkers in the order of their positions; H or OH if unused. Non-standard residues stand in square brackets, D forms with d. Residues, ends and D or L forms follow the SMILES beside them. *: point of attachment. DOTA = O=C(O)CN1CCN(CC(=O)O)CCN(CC(=O)*)CCN(CC(=O)O)CC1; PEG12 = NCCOCCOCCOCCOCCOCCOCCOCCOCCOCCOCCOCCOCCC(=O)O; d(γGlu) = O=C(O)[C@@H](CCC(=O)[*:2])N[*:1]; 1Nal = N[C@@H](Cc1cccc2ccccc12)C(=O)O; NMeNle = CCCC[C@H](NC)C(=O)O; PEG4 = NCCOCCOCCOCCOCCC(=O)O
Write the answer as a number in nM, unit excluded.

Would you please look over these solved cases?
compound | result.number
CCCC[C@@H](C(=O)N[C@@H](CC(=O)O)C(=O)N[C@@H](Cc1cccc2ccccc12)C(N)=O)N(C)C(=O)[C@H](Cc1c[nH]c2ccccc12)NC(=O)CCOCCOCCOCCOCCOCCOCCOCCOCCOCCOCCOCCOCCNC(=O)CC[C@@H](NC(=O)CN1CCN(CC(=O)O)CCN(CC(=O)O)CCN(CC(=O)O)CC1)C(=O)O [DOTA-CCK-81] ({DOTA-d(γGlu)-PEG12}-W[NMeNle]D[1Nal]-NH2) | 6.3
CCCC[C@@H](C(=O)N[C@@H](CC(=O)O)C(=O)N[C@@H](Cc1cccc2ccccc12)C(N)=O)N(C)C(=O)[C@H](Cc1c[nH]c2ccccc12)NC(=O)CNC(=O)[C@H](Cc1ccc(O)cc1)NC(=O)CNC(=O)CC[C@@H](NC(=O)CN1CCN(CC(=O)O)CCN(CC(=O)O)CCN(CC(=O)O)CC1)C(=O)O [DOTA-CCK-59] ({DOTA-d(γGlu)}-GYGW[NMeNle]D[1Nal]-NH2) | 4.2

Attention now turns to another entry.
Lab note: compound CCCC[C@@H](C(=O)N[C@@H](CC(=O)O)C(=O)N[C@@H](Cc1cccc2ccccc12)C(N)=O)N(C)C(=O)[C@H](Cc1c[nH]c2ccccc12)NC(=O)CCOCCOCCOCCOCCNC(=O)CC[C@@H](NC(=O)CN1CCN(CC(=O)O)CCN(CC(=O)O)CCN(CC(=O)O)CC1)C(=O)O [DOTA-CCK-66] ({DOTA-d(γGlu)-PEG4}-W[NMeNle]D[1Nal]-NH2) tested on CCK-2R (Rattus norvegicus); recorded IC50 was 5.1

The reported measurements were obtained from patent EP4631959A2.
